- study.system: Estrogen receptor (Homo sapiens) (UniProt P03372)
- Sequence (P03372 whole entry, looked up): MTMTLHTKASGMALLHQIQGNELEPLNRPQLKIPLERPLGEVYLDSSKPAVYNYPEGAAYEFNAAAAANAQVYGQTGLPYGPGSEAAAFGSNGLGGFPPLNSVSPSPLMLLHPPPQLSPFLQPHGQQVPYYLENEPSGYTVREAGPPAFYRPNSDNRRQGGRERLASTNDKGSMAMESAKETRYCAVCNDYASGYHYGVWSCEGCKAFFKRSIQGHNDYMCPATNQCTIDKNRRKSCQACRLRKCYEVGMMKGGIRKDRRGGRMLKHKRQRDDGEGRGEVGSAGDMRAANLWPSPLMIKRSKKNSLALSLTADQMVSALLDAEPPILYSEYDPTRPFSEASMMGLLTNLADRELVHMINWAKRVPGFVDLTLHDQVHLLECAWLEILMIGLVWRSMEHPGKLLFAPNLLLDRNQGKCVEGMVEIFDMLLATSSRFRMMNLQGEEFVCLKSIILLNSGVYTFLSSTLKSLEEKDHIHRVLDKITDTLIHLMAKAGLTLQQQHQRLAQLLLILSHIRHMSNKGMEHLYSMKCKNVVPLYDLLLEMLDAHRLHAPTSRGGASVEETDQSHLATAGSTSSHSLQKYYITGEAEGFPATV
- assay: NVS_NR_hER: NovaScreen (NVS) Nuclear Receptor Binding Assay for human Estrogen Receptor (ER) (AID 2283348)
Results filed as inconclusive are left out. The source made the active and inactive calls. Rule for the calls: active = hit-call score of the fitted dose curve at least 0.9, where 1 is the maximum; inconclusive = response in the unintended direction; inactive = score below 0.9.
Pick from TRUE (active), FALSE (inactive) when you respond.

// known answers, use as guide
• CC(=O)CC(=O)N(C)C = FALSE
• CCCCC/C=C\C=C\C(=O)OCC = TRUE
• COc1ccccc1O = FALSE

Next:
q: Hi team, can someone confirm the assay call for CC/C=C\CCOC(C)OCC (centres undefined) ?
a: FALSE

----------
- study.system: Transcriptional activator Myb (Homo sapiens) (UniProt P10242)
- Sequence (P10242 whole entry, looked up): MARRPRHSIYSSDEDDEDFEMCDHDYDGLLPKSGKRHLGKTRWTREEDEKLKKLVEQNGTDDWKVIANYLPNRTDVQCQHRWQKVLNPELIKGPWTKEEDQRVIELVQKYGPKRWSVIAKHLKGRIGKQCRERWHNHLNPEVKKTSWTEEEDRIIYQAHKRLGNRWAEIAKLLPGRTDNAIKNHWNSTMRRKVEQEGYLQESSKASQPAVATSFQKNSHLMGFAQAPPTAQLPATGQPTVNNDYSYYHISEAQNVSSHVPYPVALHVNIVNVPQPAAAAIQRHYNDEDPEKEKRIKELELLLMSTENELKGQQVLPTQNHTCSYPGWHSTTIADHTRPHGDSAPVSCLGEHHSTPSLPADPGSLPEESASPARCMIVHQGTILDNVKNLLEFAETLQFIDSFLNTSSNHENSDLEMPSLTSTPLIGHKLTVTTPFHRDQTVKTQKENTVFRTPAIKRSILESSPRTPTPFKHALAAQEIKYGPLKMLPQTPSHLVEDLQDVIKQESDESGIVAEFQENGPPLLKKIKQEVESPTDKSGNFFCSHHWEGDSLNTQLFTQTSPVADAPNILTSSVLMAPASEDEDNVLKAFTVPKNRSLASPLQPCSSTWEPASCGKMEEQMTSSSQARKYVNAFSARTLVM
- assay: ATG_Myb_CIS: Attagene CIS-FACTORIAL HepG2 Assay for human Myeloblastosis (Myb) Proto-Oncogene Transcription Factor (AID 2282986)
- condition.label: HepG2 Attagene CIS-FACTORIAL Myb reporter transcription; actives raise or lower the signal
Activity calls are given as the source filed them. How the source made its calls: active means hit-call score of the fitted dose curve at least 0.9, where 1 is the maximum; inactive means score below 0.9.
reported.endpoint: outcome

Some entries whose results are on file:
* O=S(=O)(O)c1cc(S(=O)(=O)O)c2c(N=Nc3ccccc3)c(O)ccc2c1 | inactive
* COc1ccccc1NC(=O)CC(C)=O | inactive
* CC(C)Cc1ccc(C(C)C(=O)O)cc1 (centres undefined) | inactive
* OC[C@@H](O)[C@H](O)[C@@H](O)[C@@H](O)CO | inactive
* CC(=O)OC(C)(C)C1CC=C(C)CC1 (centres undefined) | inactive
* CC(C)(O)CCc1ccccc1 | inactive
* C=COCC1CCC(COC=C)CC1 (centres undefined) | inactive
* CCCO | inactive
* CCNC(=S)NCC | inactive
* CC/C=C\CCCCO | inactive

q: Requested field: outcome. Item: OCCCO
a: inactive

q: Requested field: outcome. Item: CCCCCCCCCCCCN1CCOCC1
a: inactive

q: Requested field: outcome. Item: CCCC[N+](C)(CCCC)CCCC
a: inactive

q: Requested field: outcome. Item: [Cu+]
a: inactive

The origin of these recorded values is PubChem BioAssay (EPA / NIEHS).
